Reported % inhibition at 100 µM is given for each of the following binders.
biological target: T1, Chymotrypsin, from human pancreas (human, UniProt P17538 19-263); experiment: enzyme inhibition, pNA substrate
T1 construct: purified natural enzyme, bought
T1 sequence (P17538 19-263): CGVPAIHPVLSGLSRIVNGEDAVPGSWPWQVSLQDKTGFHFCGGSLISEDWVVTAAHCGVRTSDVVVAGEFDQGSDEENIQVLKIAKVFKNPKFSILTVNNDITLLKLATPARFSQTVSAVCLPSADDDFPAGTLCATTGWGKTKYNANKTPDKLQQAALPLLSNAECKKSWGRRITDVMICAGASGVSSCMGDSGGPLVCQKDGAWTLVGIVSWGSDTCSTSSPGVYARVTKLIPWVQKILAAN
Bridges are numbered along the chain shown (N, C = ends). [ ]: non-standard residue; d: D form. Pro(4NHCOPhe) = not defined here; Cha = N[C@@H](CC1CCCCC1)C(=O)O; Nle = CCCC[C@H](N)C(=O)O
Just the number in %, nothing appended.

{"binder": "XCTASIPPQCX (HELM PEPTIDE1{[Nle].C.T.A.S.I.P.P.Q.C.[Phg].[dP].P}$PEPTIDE1,PEPTIDE1,2:R3-10:R3|PEPTIDE1,PEPTIDE1,1:R1-13:R2$$$V2.0; SMILES CCCC[C@@H]1NC(=O)[C@@H]2CCCN2C(=O)[C@H]2CCCN2C(=O)[C@H](c2ccccc2)NC(=O)[C@@H]2CSSC[C@H](NC1=O)C(=O)N[C@@H]([C@@H](C)O)C(=O)N[C@@H](C)C(=O)N[C@@H](CO)C(=O)N[C@@H]([C@@H](C)CC)C(=O)N1CCC[C@H]1C(=O)N1CCC[C@H]1C(=O)N[C@@H](CCC(N)=O)C(=O)N2, also called Ex. 136) [Example 136]", "% inhibition at 100 µM (%)": 67.9}
{"binder": "cyclo([Nle]CTAS[Cha]P[Pro(4NHCOPhe)]QCQ[dQ]Q) (disulfide 2-10; reading uncertain, also called Ex. 176) [Example 176]", "% inhibition at 100 µM (%)": 55}
{"binder": "XCTASIPPQCY (HELM PEPTIDE1{[Nle].C.T.A.S.I.P.P.Q.C.Y.[dK].E}$PEPTIDE1,PEPTIDE1,2:R3-10:R3|PEPTIDE1,PEPTIDE1,1:R1-13:R2$$$V2.0; SMILES CCCC[C@@H]1NC(=O)[C@H](CCC(=O)O)NC(=O)[C@@H](CCCCN)NC(=O)[C@H](Cc2ccc(O)cc2)NC(=O)[C@@H]2CSSC[C@H](NC1=O)C(=O)N[C@@H]([C@@H](C)O)C(=O)N[C@@H](C)C(=O)N[C@@H](CO)C(=O)N[C@@H]([C@@H](C)CC)C(=O)N1CCC[C@H]1C(=O)N1CCC[C@H]1C(=O)N[C@@H](CCC(N)=O)C(=O)N2) [Example 127]", "% inhibition at 100 µM (%)": 47.2}

Ask | Look up % inhibition at 100 µM for this binder: XCTASIPPQCF (HELM PEPTIDE1{[Nle].C.T.A.S.I.P.P.Q.C.F.[dP].P}$PEPTIDE1,PEPTIDE1,2:R3-10:R3|PEPTIDE1,PEPTIDE1,1:R1-13:R2$$$V2.0; SMILES CCCC[C@@H]1NC(=O)[C@@H]2CCCN2C(=O)[C@H]2CCCN2C(=O)[C@H](Cc2ccccc2)NC(=O)[C@@H]2CSSC[C@H](NC1=O)C(=O)N[C@@H]([C@@H](C)O)C(=O)N[C@@H](C)C(=O)N[C@@H](CO)C(=O)N[C@@H]([C@@H](C)CC)C(=O)N1CCC[C@H]1C(=O)N1CCC[C@H]1C(=O)N[C@@H](CCC(N)=O)C(=O)N2, also called Ex. 137) [Example 137]
Reply | 68.7

Ask | Bench note: what % inhibition at 100 µM did XCTASXPPQCY (HELM PEPTIDE1{[Nle].C.T.A.S.[Cha].P.P.Q.C.Y.[dP].P}$PEPTIDE1,PEPTIDE1,2:R3-10:R3|PEPTIDE1,PEPTIDE1,1:R1-13:R2$$$V2.0; SMILES CCCC[C@@H]1NC(=O)[C@@H]2CCCN2C(=O)[C@H]2CCCN2C(=O)[C@H](Cc2ccc(O)cc2)NC(=O)[C@@H]2CSSC[C@H](NC1=O)C(=O)N[C@@H]([C@@H](C)O)C(=O)N[C@@H](C)C(=O)N[C@@H](CO)C(=O)N[C@@H](CC1CCCCC1)C(=O)N1CCC[C@H]1C(=O)N1CCC[C@H]1C(=O)N[C@@H](CCC(N)=O)C(=O)N2, also called Ex. 141) [Example 141] show?
Reply | 72.9
